// data source = PubChem BioAssay (EPA / NIEHS)

Test: CCTE_Shafer_MEA_dev_per_network_spike_spike_percent: CCTE's Neural Network Formation Assay for Percent of Spikes in a Network Spike, Shafer Lab (AID 2284054)
Description: CCTE_Shafer_MEA_dev assay is conducted using Axion Biosystems 48 well microelectrode array (MEA) plates and Maestro recording system. Each well of the MEA plate contains a grid of 16 microelectrodes embedded in the culture surface. Electrically active cells, such as neurons, can be cultured over the electrodes, and electrical activity in these cells can be recorded extracellularly. […]
Calls of active or inactive are those of the source. The calls were made as follows: active = hit-call score of the fitted dose curve at least 0.9, where 1 is the maximum; inactive = score below 0.9.
Outcome codes: active, inactive

>>> discrete_label("CC/C(=C(/CC)c1ccc(O)cc1)c1ccc(O)cc1")
"active"
>>> discrete_label("Oc1ccccc1")
"inactive"
>>> discrete_label("CN1C(=O)CC[C@H]1c1cccnc1")
"inactive"
>>> discrete_label("c1ccc2ccccc2c1")
"inactive"
>>> discrete_label("Clc1ccccc1C(c1ccccc1)(c1ccccc1)n1ccnc1")
"inactive"

---

molecular target: Adenosine receptor A1 (Bos taurus); experiment: NVS_GPCR_bAdoR_NonSelective: NovaScreen (NVS) G Protein-Coupled Receptor Assay for bovine Adenosine Receptor (AdoR), Non-selective Binding (AID 2283244)
Inconclusive results are not listed. Activity calls are given as the source filed them. How the source made its calls: active means hit-call score of the fitted dose curve at least 0.9, where 1 is the maximum; inconclusive means response in the unintended direction; inactive means score below 0.9.
Outcome codes: active, inactive

>>> discrete_label("CCCCCCCCCC(=O)O")
"inactive"
>>> discrete_label("CCN(CC)C(=O)c1cc(S(=O)(=O)Cc2ccccc2)c(N2CCC(c3ccccc3)CC2)cc1N(CC)CCN(C)C")
"inactive"
>>> discrete_label("CC(C)(C)c1cc(/C=C2\\SC(N)=NC2=O)cc(C(C)(C)C)c1O")
"inactive"
>>> discrete_label("O=c1c(-c2ccc(O)cc2)coc2cc(O)cc(O)c12")
"active"
>>> discrete_label("CN(C)c1ccc(C(=C2C=CC(=[N+](C)C)C=C2)c2ccc(N(C)C)cc2)cc1")
"active"

---

experiment: ATG_VDRE_CIS: Attagene CIS-FACTORIAL HepG2 Assay for human Vitamin D Receptor Element (VDRE) (AID 2282968); settings: HepG2 VDRE cis-reporter transcription, actives raise or lower the signal
Calls of active or inactive are those of the source. Rule for the calls: active = hit-call score of the fitted dose curve at least 0.9, where 1 is the maximum; inactive = score below 0.9.
Test Readout: outcome

>>> obs_value("Clc1cc(Cl)c2c(c1)N=C1CCCCCN1C2")
"inactive"
>>> obs_value("CCCOC(=O)c1cc(O)c(O)c(O)c1")
"inactive"
>>> obs_value("O=c1[nH]sc2ccccc12")
"inactive"
>>> obs_value("CCCCCCCCCCCCO")
"inactive"
>>> obs_value("CCCCCCCCOC(=O)c1cc(O)c(O)c(O)c1")
"inactive"
>>> obs_value("Cc1ccc(C(C)C)cc1")
"inactive"
>>> obs_value("O=C=NCCCCCCN=C=O")
"inactive"
>>> obs_value("CC(O)CC(C)(C)O (stereo not drawn)")
"inactive"

---

read-out: Interleukin-8 (IL8), CXCL8 (gene 3576); assay: BSK_3C_IL8: BioMAP Diversity Plus: 3C Assay for Interleukin-8 (IL8) Biomarker Activity (AID 2283020); settings: primary human endothelial cells (HUVEC); actives raise or lower the signal
Active and inactive are the calls of the source. The calls were made as follows: active = hit-call score of the fitted dose curve at least 0.9, where 1 is the maximum; inactive = score below 0.9.
Test Readout: AC50

>>> obs_value("Cc1ccc(C(C)C)cc1")
"inactive"
>>> obs_value("C[C@]12CC[C@@H]3c4ccc(O)cc4CC[C@H]3[C@@H]1CC[C@H]2O")
"13 µM (active)"
>>> obs_value("c1ccc(C[n+]2cccc3ccccc32)cc1")
"inactive"
>>> obs_value("c1ccc2n[nH]nc2c1")
"inactive"
>>> obs_value("CC(C)(C)c1cc(/C=C2\\SC(N)=NC2=O)cc(C(C)(C)C)c1O")
"30.1 µM (active)"
>>> obs_value("CCCCCCCC[Si](OCC)(OCC)OCC")
"30 µM (active)"
>>> obs_value("OCCO")
"inactive"
>>> obs_value("CCCCCCCCOc1ccc(C(=O)c2ccccc2)c(O)c1")
"inactive"
>>> obs_value("CCN(CC)C(=O)c1cc(S(=O)(=O)Cc2ccccc2)c(N2CCC(c3ccccc3)CC2)cc1N(CC)CCN(C)C")
"13.8 µM (active)"
>>> obs_value("CCCOC(=O)c1cc(O)c(O)c(O)c1")
"inactive"
>>> obs_value("CCN(Cc1cccc(S(=O)(=O)O)c1)c1ccc(C(=C2C=CC(=[N+](CC)Cc3cccc(S(=O)(=O)O)c3)C=C2)c2ccccc2S(=O)(=O)[O-])cc1")
"inactive"
>>> obs_value("O=C1CCC(C2CCCCC2)CC1")
"inactive"
>>> obs_value("O=C=NCCCCCCN=C=O")
"inactive"
>>> obs_value("CN(C)C(=O)C1(N2CCCCC2)CCN(CC[C@@]2(c3ccc(Cl)c(Cl)c3)CN(C(=O)c3ccccc3)CCO2)CC1")
"24.3 µM (active)"
>>> obs_value("CCCCCc1ccc(N)cc1")
"inactive"
>>> obs_value("Cc1c2ccccc2c(C)c2c1ccc1ccccc12")
"35.9 µM (active)"
>>> obs_value("CC/C(=C(/CC)c1ccc(O)cc1)c1ccc(O)cc1")
"32.6 µM (active)"
>>> obs_value("CCOC(=O)O[C@H](C)OC(=O)c1ccc2c(c1)cc(C(=O)NC1CCN(C(C)C)CC1)n2Cc1cc(-c2ccc(Cl)s2)on1")
"6.77 µM (active)"
>>> obs_value("O=CCCCC=O")
"inactive"
>>> obs_value("OC12N=C(c3ccccc3)SC1Cc1cc(Cl)ccc12 (stereo unspecified)")
"inactive"
>>> obs_value("NC(=O)c1nc(-c2cccc(-c3cc(F)ccc3OCC(F)(F)C(F)(F)F)c2)n[nH]1")
"34.4 µM (active)"
>>> obs_value("Cc1cn([C@H]2C[C@H](N=[N+]=[N-])[C@@H](CO)O2)c(=O)[nH]c1=O")
"inactive"
>>> obs_value("O=C(Nc1ccc(Cl)cc1)Nc1ccc(Cl)c(Cl)c1")
"1.87 µM (active)"
>>> obs_value("CN(C)c1ccc(C(=C2C=CC(=[N+](C)C)C=C2)c2ccc(N(C)C)cc2)cc1")
"5.53 µM (active)"
>>> obs_value("CCCC(=O)OCCC(C)C")
"inactive"
>>> obs_value("O=C1c2ccccc2C(=O)N1CCc1noc(-c2ccc(CN3CCCCCC3)s2)n1")
"inactive"
>>> obs_value("CCO[Si](CCCNC(N)=O)(OCC)OCC")
"inactive"
>>> obs_value("CC1=CC(=O)/C(=C(/C)O)C(=O)O1")
"inactive"
>>> obs_value("O=C(OCCCCCCOC(=O)c1ccccc1)c1ccccc1")
"inactive"
>>> obs_value("CC(C)(C)c1csc(-c2cc3cc(OCc4ccccc4CC(=O)O)ccc3o2)n1")
"18.4 µM (active)"
>>> obs_value("CC[C@@H]1C[C@H](N(Cc2cc(C(F)(F)F)cc(C(F)(F)F)c2)C(C)=O)c2cc(C(F)(F)F)ccc2N1C(=O)OC(C)C")
"inactive"
>>> obs_value("CCCCCCCCCCCCO")
"36 µM (active)"
>>> obs_value("C[C@]12CC[C@@H]3c4ccc(O)cc4CC[C@H]3[C@@H]1CCC2=O")
"inactive"
>>> obs_value("CC1(C)NC(=O)N(c2ccc([N+](=O)[O-])c(C(F)(F)F)c2)C1=O")
"inactive"
>>> obs_value("CC(C)(O)c1ccc(CNC(=O)c2cccnc2Oc2ccc3nonc3c2)cc1")
"inactive"
>>> obs_value("O=C(O)c1ccccc1C(=O)OCc1ccccc1")
"inactive"
>>> obs_value("O=c1[nH]sc2ccccc12")
"14.4 µM (active)"
>>> obs_value("COc1ccc2cc(S(=O)(=O)N[C@H](CC(=O)N[C@H](Cc3ccc(CN4[C@H](C)CCC[C@@H]4C)cc3)C(=O)N(C)C(C)C)c3ccc4c(c3)OCO4)ccc2c1")
"16.3 µM (active)"
>>> obs_value("COc1cccc([C@H](O)C2CCN(CCc3ccc(F)cc3)CC2)c1OC")
"inactive"
>>> obs_value("Cc1cc(F)ccc1-c1cc(N2CC[C@@H](O)[C@H]2CO)ncc1N(C)C(=O)C(C)(C)c1cc(C(F)(F)F)cc(C(F)(F)F)c1")
"9.76 µM (active)"
>>> obs_value("O=c1ccc2ccccc2o1")
"inactive"
